EC (1.5-fold increase) listing for selected molecules.
system: SMN2 minigene mRNA (SMN2-A minigene) in HEK293H cells; test: SMN2 minigene mRNA splicing RT-qPCR assay in cultured cells; format: cell-based, human; details: Homo sapiens, HEK293-H; concentration increasing full length SMN2 mRNA 1.5-fold relative to vehicle-treated cells; HEK293H cells with SMN2-A minigene, 24 hours, 7-point concentration data; read-out: EC1.5x for production of full length SMN2 mRNA

# Molecule, Reading
data = [
    ("Cc1cn2nc(-c3cc(=O)n4cc(C5CCN(C6CCC6)CC5)cc(C)c4n3)cc2c(C)n1 [Compound 704]", "0.1 to 0.3 µM"),
    ("Cc1cc(C2CCN(C)CC2)cn2c(=O)cc(-c3ccc4c(cnn4C)c3)nc12 [Compound 784]", "0.1 to 0.3 µM"),
    ("Cc1cn2cc(-c3cc(=O)n4cc(C5(O)CCNCC5)ccc4n3)cc(F)c2n1 [Compound 811]", "0.3 to 1 µM"),
]

Proceed to the following item.
Problem: Annotate the molecule CCN1CCC(c2cc(C)c3nc(-c4ccc5nn(C)cc5c4)cc(=O)n3c2)CC1 [Compound 719] with its measured EC (1.5-fold increase).
Result: < 0.1 µM

###

EC (1.5-fold increase) listing for selected molecules.
system: SMN2 minigene mRNA (SMN2-A minigene) in HEK293H cells; assay: SMN2 minigene mRNA splicing RT-qPCR assay in cultured cells; type: cell-based, human; settings: Homo sapiens, HEK293-H; concentration increasing full length SMN2 mRNA 1.5-fold relative to vehicle-treated cells; HEK293H cells with SMN2-A minigene, 24 hours, 7-point concentration data; read-out: EC1.5x for production of full length SMN2 mRNA

Before answering, review these 6 worked examples.
# Mol, Tested target, EC (1.5-fold increase)
measured = [
    ("Cc1cn2cc(-c3cc(=O)n4cc(N5CCN[C@H](C)C5)ccc4n3)cc(F)c2n1", "SMN2 minigene mRNA (SMN2-A minigene) in HEK293H cells", "< 0.1 µM"),
    ("CN(C)c1ccc(-c2cc(=O)n3cc(N4CCNCC4)cc(F)c3n2)cc1", "SMN2 minigene mRNA (SMN2-A minigene) in HEK293H cells", "3 to 30 µM"),
    ("Cc1nc2ccc(-c3cc(=O)n4cc(C5=CCNCC5)ccc4n3)cc2o1", "SMN2 minigene mRNA (SMN2-A minigene) in HEK293H cells", "< 0.1 µM"),
    ("Cc1nc2ccc(-c3cc(=O)n4cc(N5CCN(C)CC5)ccc4n3)cc2[nH]1", "SMN2 minigene mRNA (SMN2-A minigene) in HEK293H cells", "0.1 to 0.3 µM"),
    ("C[C@H]1CN(c2ccc3nc(-c4ccc(OC(F)F)cc4)cc(=O)n3c2)CCN1", "SMN2 minigene mRNA (SMN2-A minigene) in HEK293H cells", "1 to 3 µM"),
    ("CCN1CCN(c2ccc3nc(-c4cc(F)c5nc(C)oc5c4)cc(=O)n3c2)CC1", "SMN2 minigene mRNA (SMN2-A minigene) in HEK293H cells", "< 0.1 µM"),
]

Problem: Annotate the molecule Cc1cn2nc(-c3cc(=O)n4cc(N5CCC(N(C)C)CC5)ccc4n3)cc2cn1 with its measured EC (1.5-fold increase).
Result: < 0.1 µM

Problem: Annotate the molecule Cc1cn2nc(-c3cc(=O)n4cc(N5CCN(C)CC5)ccc4n3)cc2c(C2CC2)n1 with its measured EC (1.5-fold increase).
Result: 0.1 to 0.3 µM

Problem: Annotate the molecule COc1ccc(-c2cc(=O)n3cc(NC4CCNCC4)ccc3n2)cc1OC with its measured EC (1.5-fold increase).
Result: 1 to 3 µM

Problem: Annotate the molecule Cc1cc(-c2cc(=O)n3cc(C4CCNCC4)ccc3n2)cc2cn(C)nc12 with its measured EC (1.5-fold increase).
Result: < 0.1 µM

Problem: Annotate the molecule Cc1cn2cc(-c3cc(=O)n4cc(N5CCN(C6CCC6)[C@@H](C)C5)ccc4n3)cc(Cl)c2n1 with its measured EC (1.5-fold increase).
Result: < 0.1 µM

Problem: Annotate the molecule C[C@@H]1CN(c2ccc3nc(-c4ccc5c(cnn5C)c4)cc(=O)n3c2)C[C@H](C)N1 with its measured EC (1.5-fold increase).
Result: 0.3 to 1 µM

Problem: Annotate the molecule Cc1cn2cc(-c3cc(=O)n4cc(N5CCN[C@H](C)C5)ccc4n3)cc2c(C)n1 with its measured EC (1.5-fold increase).
Result: < 0.1 µM

Problem: Annotate the molecule Cc1cn2cc(-c3cc(=O)n4cc(N5CCN(C6CCC6)[C@@H](C)C5)ccc4n3)cc(F)c2n1 with its measured EC (1.5-fold increase).
Result: < 0.1 µM

Problem: Annotate the molecule CCN1CCN(c2ccc3nc(-c4cc(Cl)c5nc(C)cn5c4)cc(=O)n3c2)C[C@H]1C with its measured EC (1.5-fold increase).
Result: < 0.1 µM

Problem: Annotate the molecule Cc1cn2nc(-c3cc(=O)n4cc(N5CCN(C)CC5)cc(C)c4n3)cc2c(C)n1 with its measured EC (1.5-fold increase).
Result: < 0.1 µM

Problem: Annotate the molecule Cc1cn2cc(-c3cc(=O)n4cc(N5CCN[C@@H](C)C5)ccc4n3)ccc2n1 with its measured EC (1.5-fold increase).
Result: < 0.1 µM

###

system: SMN2 minigene mRNA (SMN2-A minigene) in HEK293H cells; experiment: SMN2 minigene mRNA splicing RT-qPCR assay in cultured cells; type: cell-based, human; details: Homo sapiens, HEK293-H; concentration increasing full length SMN2 mRNA 1.5-fold relative to vehicle-treated cells; HEK293H cells with SMN2-A minigene, 24 hours, 7-point concentration data; read-out: EC1.5x for production of full length SMN2 mRNA
EC (1.5-fold increase) listing for selected compounds.

# Compound, Tested target, Reading
measured = [
    ("CCNC1(C)CCN(c2ccc3nc(-c4cc5c(C)nc(C)cn5n4)cc(=O)n3c2)CC1", "SMN2 minigene mRNA (SMN2-A minigene) in HEK293H cells", "< 0.1 µM"),
]

Problem: Annotate the compound Cc1cc(N2CCNCC2)cn2c(=O)cc(-c3ccc4nn(C)cc4c3)nc12 with its measured EC (1.5-fold increase).
Result: < 0.1 µM

Problem: Annotate the compound O=c1cc(-c2ccc(C(F)(F)F)cc2)nc2ccc(N3CCNCC3)cn12 with its measured EC (1.5-fold increase).
Result: 1 to 3 µM

Problem: Annotate the compound CCc1nc(C)cn2nc(-c3cc(=O)n4cc(OCC5CCNCC5)ccc4n3)cc12 with its measured EC (1.5-fold increase).
Result: 0.1 to 0.3 µM

Problem: Annotate the compound CCCN1CC=C(c2ccc3nc(-c4cc5c(C)nc(C)cn5n4)cc(=O)n3c2)CC1 with its measured EC (1.5-fold increase).
Result: < 0.1 µM

Problem: Annotate the compound COc1ccc(-c2cc(=O)n3cc(N4CCC(N(C)CCO)CC4)cc(C)c3n2)cc1OC with its measured EC (1.5-fold increase).
Result: < 0.1 µM

Problem: Annotate the compound Cc1cn2cc(-c3ccc4nc(C5=CCNCC5)cc(=O)n4c3)cc(F)c2n1 with its measured EC (1.5-fold increase).
Result: < 0.1 µM

###

melting point listing for selected molecules.

Before answering, review these 5 worked examples.
# Mol, melting point
rows = [
    ("O=c1cc(-c2cccc([N+](=O)[O-])c2)nc2ccc(N3CCNCC3)cn12", "175 °C (dec.)"),
    ("Cc1cn2cc(-c3cc(=O)n4cc(N5CCN(C)CC5)ccc4n3)cc(CO)c2n1", "262 to 266 °C"),
    ("COc1ccc(-c2cc(=O)n3cc(C4=CCNCC4)cc(C)c3n2)cc1OC", "186 to 191 °C"),
    ("COc1cncc(-c2cc(=O)n3cc(N4CCNCC4)ccc3n2)c1", "192 to 195 °C"),
    ("COc1cccc(-c2cc(=O)n3cc(N4CCNCC4)ccc3n2)c1", "147 to 149 °C"),
]

Problem: Annotate the molecule CCc1cc(-c2cc(=O)n3cc(N4CCN(CC)[C@H](C)C4)ccc3n2)cn2cc(C)nc12 with its measured melting point.
Result: 179 to 182 °C

Problem: Annotate the molecule CCN1CCN(c2ccc3nc(-c4cc5c(C)nc(C)cn5n4)cc(=O)n3c2)CC1 with its measured melting point.
Result: 251 to 253 °C

Problem: Annotate the molecule CCc1nc(C)cn2nc(-c3cc(=O)n4cc(C5CCN(C)CC5)ccc4n3)cc12 with its measured melting point.
Result: 190 to 192 °C

Problem: Annotate the molecule Cc1cn2nc(-c3cc(=O)n4nc(C5CCN(C)CC5)ccc4n3)cc2c(C)n1 with its measured melting point.
Result: 265 to 267 °C

Problem: Annotate the molecule Cc1cn2cc(-c3ccc4nc(C5=CCN(C)CC5)cc(=O)n4c3)ccc2n1 with its measured melting point.
Result: 203 to 207 °C

Problem: Annotate the molecule CCc1nc(C)cn2nc(-c3cc(=O)n4cc(N5CCN[C@@H](C)C5)cc(C)c4n3)cc12 with its measured melting point.
Result: 227 to 236 °C

Problem: Annotate the molecule CN1CCN(c2ccc3nc(-c4ccc5c(c4)OCO5)cc(=O)n3c2)CC1 with its measured melting point.
Result: 235 to 237 °C

Problem: Annotate the molecule Cc1cn2cc(-c3cc(=O)n4cc(N5CCN6CCC[C@@H]6C5)ccc4n3)cc(F)c2n1 with its measured melting point.
Result: 277 to 280 °C

Problem: Annotate the molecule Cc1cc2cc(-c3cc(=O)n4cc(N5CCC(N(C)C)CC5)ccc4n3)oc2c(C)n1 with its measured melting point.
Result: 200 to 202 °C

Problem: Annotate the molecule CCc1nc(C)cn2nc(-c3cc(=O)n4cc(C5CCN(C6COC6)CC5)ccc4n3)cc12 with its measured melting point.
Result: 190 to 192 °C

Problem: Annotate the molecule C[C@H]1CN(c2ccc3nc(-c4cnn(C)c4)cc(=O)n3c2)CCN1 with its measured melting point.
Result: 168 to 170 °C

Problem: Annotate the molecule Cc1cn2cc(-c3cc(=O)n4cc(N5CCCN(C)CC5)ccc4n3)cc(Cl)c2n1 with its measured melting point.
Result: 239 to 244 °C
